test: Photophysical analysis: absorption, excitation and emission at 10 μM (Example 5); assay type: physicochemical; conditions: acetonitrile at 10 μM (footnotes a,b)
measured-endpoint: λex (excitation wavelength) (nm)

O=S(=O)([O-])c1ccc2c(c1)-c1cc(-c3ccc(-c4ccccc4)cc3)ccc1S2(=O)=O.[Na+] [Compound 16b] ... 287
O=S(=O)(Oc1ccccc1)c1ccc2c(c1)-c1cc(-c3cccc4ccccc34)ccc1S2(=O)=O [Compound 7b] ... 274
O=S(=O)([O-])c1ccc2c(c1)-c1cc(-c3cccc4ccccc34)ccc1S2(=O)=O.[Na+] [Compound 17b] ... 274
O=S(=O)([O-])c1ccc2c(c1)-c1cc(-c3ccccc3)ccc1S2(=O)=O.[Na+] [Compound 15b] ... 268
O=S(=O)(Oc1ccccc1)c1ccc2c(c1)-c1cc(-c3ccc(-c4ccccc4)cc3)ccc1S2(=O)=O [Compound 8b] ... 283
O=S(=O)(Oc1ccccc1)c1ccc2c(c1)-c1cc(-c3ccccc3)ccc1S2(=O)=O [Compound 6b] ... 274
